Target: Dopamine beta-hydroxylase (Bos taurus)
Assay: Compound was determined for the kinetic constant against Dopamine beta hydroxylase purified from beef adrenals, catalytic constant (kcat)
Measured k cat, listed per entry.

{"compound": "C=C(CN)c1ccco1", "recorded measurement": "0.13 -1/min"}

Q: Any idea what k cat was measured for `C=C(CN)c1ccoc1` ?
Ans: 0.077 -1/min

Q: Any idea what k cat was measured for `C=C(CNC)c1cccs1` ?
Ans: 0.00163 s⁻¹

Q: Any idea what k cat was measured for C=C(c1cccs1)C(C)N (centres undefined) ?
Ans: 0.000967 s⁻¹

Q: Any idea what k cat was measured for `C=C(CN)c1cccs1` ?
Ans: 0.124 -1/min

Q: Any idea what k cat was measured for `C=C(CN)c1ccccc1` ?
Ans: 0.04 -1/min

Q: Any idea what k cat was measured for `CC#Cc1ccccc1` ?
Ans: 0.06 -1/min

Q: Any idea what k cat was measured for `C=C(CN)c1ccsc1` ?
Ans: 0.147 -1/min

Q: Any idea what k cat was measured for `NCC#Cc1ccccc1` ?
Ans: 0.07 -1/min

====

Test: The ratio of Kinetic constant K cat / Ki of Dopamine Beta-hydroxylase inhibitor.
Measured k cat/Ki, listed per entry.
Answer format: numeric, M⁻¹ s⁻¹ implied, no suffix.

Look over these answered cases.
{"molecule": "NCC#Cc1ccccc1", "k cat/Ki (M⁻¹ s⁻¹)": 55.5}
{"molecule": "CC#Cc1ccccc1", "k cat/Ki (M⁻¹ s⁻¹)": 0.1}
{"molecule": "C=C(CN)c1cccs1", "k cat/Ki (M⁻¹ s⁻¹)": 59}
{"molecule": "C=C(c1cccs1)C(C)N (centres undefined)", "k cat/Ki (M⁻¹ s⁻¹)": 2.68}

Q: Any idea what k cat/Ki was measured for `C=C(CN)c1ccccc1` ?
Ans: 0.05

Q: Any idea what k cat/Ki was measured for `C=C(CN)c1ccsc1` ?
Ans: 4.28

Q: Any idea what k cat/Ki was measured for `C=C(CN)c1ccoc1` ?
Ans: 5.57

Q: Any idea what k cat/Ki was measured for `C=C(CNC)c1cccs1` ?
Ans: 0.733

Q: Any idea what k cat/Ki was measured for `C=C(CN)c1ccco1` ?
Ans: 5.28

====

Measured Ki, listed per entry.
Target: Dopamine beta-hydroxylase (Bos taurus, UniProt P15101)
Sequence (P15101 whole entry): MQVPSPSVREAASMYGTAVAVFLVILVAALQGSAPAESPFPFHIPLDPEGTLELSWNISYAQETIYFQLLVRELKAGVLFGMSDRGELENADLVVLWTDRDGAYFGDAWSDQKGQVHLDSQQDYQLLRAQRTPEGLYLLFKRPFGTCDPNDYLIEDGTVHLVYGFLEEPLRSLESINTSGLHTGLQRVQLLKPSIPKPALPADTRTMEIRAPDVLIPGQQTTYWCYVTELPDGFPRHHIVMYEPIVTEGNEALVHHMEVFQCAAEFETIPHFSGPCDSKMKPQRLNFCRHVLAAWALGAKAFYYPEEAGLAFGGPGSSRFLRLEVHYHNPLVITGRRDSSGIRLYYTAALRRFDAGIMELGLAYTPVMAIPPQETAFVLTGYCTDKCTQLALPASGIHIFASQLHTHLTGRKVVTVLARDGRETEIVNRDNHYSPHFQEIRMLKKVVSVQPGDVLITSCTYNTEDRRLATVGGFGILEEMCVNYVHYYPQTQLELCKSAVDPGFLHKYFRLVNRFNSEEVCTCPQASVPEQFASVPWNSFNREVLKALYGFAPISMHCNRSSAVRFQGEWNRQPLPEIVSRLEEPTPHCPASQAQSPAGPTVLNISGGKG
Answer format: numeric, µM implied, no suffix.

Look over these answered cases.
{"molecule": "C=C(CN)c1cccs1", "units text": "µM", "Ki": 35}
{"molecule": "NCC#Cc1ccccc1", "units text": "µM", "Ki": 21}
{"molecule": "C=C(CN)c1ccsc1", "units text": "µM", "Ki": 570}
{"molecule": "C=C(c1cccs1)C(C)N (stereo not given)", "units text": "µM", "Ki": 360}

Now let's try a different one.
Q: Form: Entry = `CC#Cc1ccccc1` | System = Dopamine beta-hydroxylase (Bos taurus, UniProt P15101) | Ki = ____
Ans: 20000
